B1: tRNA (parent)
chain: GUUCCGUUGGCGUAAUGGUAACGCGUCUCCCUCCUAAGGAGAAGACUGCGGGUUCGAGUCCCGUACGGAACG

Variants of: B1
protocol.description: yeast fitness relative to wild type (ratio to wild type); higher = fitter; tRNA-Arg(CCU), competitive growth, 37 C, YPD
Fewer inactive variants are shown than the library holds.
outcome.measure: yeast fitness

[[record]]
mutation = "U8G C60G C61A"
result_number = 0.597

[[record]]
mutation = "U2C C11A C22G G41A A43C G51C C66U G67U"
result_number = 0.584

[[record]]
mutation = "C5U G9A C22U"
result_number = 0.593

[[record]]
mutation = "C27U A42G G67A"
result_number = 0.589

[[record]]
mutation = "C24U C30A G50A"
result_number = 0.587

